# System: phosphocholine levels in MDA-MB-468 cells
# Assay details: Phosphocholine Assay (1H-NMR) in MDA-MB-468 cells
# Type: cell-based
# Condition summary: Homo sapiens, 24 hours of treatment, read-out: IC50 of pCh
Value type: IC50 (µM)
Report the figure in µM without appending any unit label.

## Task I'd like to know its IC50. The molecule in question is CN1CCCN(Cc2ccc(-c3ccc(CN4CCCN(C)CC4)cc3)cc2)CC1 [Example 45]
## Result 3

---

# Study system: ChoKα protein (Homo sapiens, UniProt P35790)
# Construct: made in house
# Sequence (P35790 75-457): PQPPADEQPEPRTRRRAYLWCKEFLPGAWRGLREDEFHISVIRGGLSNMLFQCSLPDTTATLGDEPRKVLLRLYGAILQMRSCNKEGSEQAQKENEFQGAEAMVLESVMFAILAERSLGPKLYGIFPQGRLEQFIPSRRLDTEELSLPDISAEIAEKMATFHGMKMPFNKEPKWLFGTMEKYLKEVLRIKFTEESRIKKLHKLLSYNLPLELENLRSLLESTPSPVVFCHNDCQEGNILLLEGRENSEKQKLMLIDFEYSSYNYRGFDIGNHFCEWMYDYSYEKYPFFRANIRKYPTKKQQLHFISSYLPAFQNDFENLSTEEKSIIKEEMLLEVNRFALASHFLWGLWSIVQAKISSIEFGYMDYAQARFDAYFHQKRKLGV
# Assay details: Binding affinity by surface plasmon resonance (SensiQ Pioneer, FastStep)
# Condition summary: SPR, 1:1 binding model, upper concentration 500 nM; read-out: Kd
Value type: Kd

Record excerpt, results attached:
INSERT INTO assay_data (molecule, value_reported) VALUES
  ('CN1CCCN(Cc2ccc(-c3ccc(CN4CCNC(=O)C4)cc3)c(C#N)c2)CC1', '< 60000 nM'),
  ('CN1CCCN(Cc2ccc(-c3ccc(C(=O)N4CCCN(C)CC4)cc3-c3cccc([N+](=O)[O-])c3)c(C#N)c2)CC1', '< 50 nM'),
  ('CN1CCCN(Cc2ccc(-c3ccc(CN4CCCN(C)CC4)c(F)c3)cc2)CC1', '< 200 nM');

## Task API: value(readout=Kd, system=ChoKα protein (Homo sapiens, UniProt P35790)) for record CN1CCCN(Cc2ccc(-c3ccc(CN(C)CCO)cc3)c(C#N)c2)CC1
## Result < 50 nM

## Task API: value(readout=Kd, system=ChoKα protein (Homo sapiens, UniProt P35790)) for record COc1ccc(-c2cc(C(=O)N3CCCN(C)CC3)ccc2-c2ccc(CN3CCCN(C)CC3)cc2C#N)cc1
## Result < 50 nM

## Task API: value(readout=Kd, system=ChoKα protein (Homo sapiens, UniProt P35790)) for record CN1CCCN(Cc2ccc(-c3ccc(CN4CCOCC4)cc3)c(C#N)c2)CC1
## Result < 100 nM

## Task API: value(readout=Kd, system=ChoKα protein (Homo sapiens, UniProt P35790)) for record CN1CCCN(Cc2ccc(-c3ccc(C(=O)N4CCC(CO)C4)cc3)c(C#N)c2)CC1 (stereo not drawn)
## Result < 200 nM

## Task API: value(readout=Kd, system=ChoKα protein (Homo sapiens, UniProt P35790)) for record CN1CCCN(Cc2ccc(-n3cccn3)cc2F)CC1
## Result < 60000 nM
